Reported PBM E-score values follow for various sequences
# Measurement Target: Mot3 (UniProt P54785)
# Sequence: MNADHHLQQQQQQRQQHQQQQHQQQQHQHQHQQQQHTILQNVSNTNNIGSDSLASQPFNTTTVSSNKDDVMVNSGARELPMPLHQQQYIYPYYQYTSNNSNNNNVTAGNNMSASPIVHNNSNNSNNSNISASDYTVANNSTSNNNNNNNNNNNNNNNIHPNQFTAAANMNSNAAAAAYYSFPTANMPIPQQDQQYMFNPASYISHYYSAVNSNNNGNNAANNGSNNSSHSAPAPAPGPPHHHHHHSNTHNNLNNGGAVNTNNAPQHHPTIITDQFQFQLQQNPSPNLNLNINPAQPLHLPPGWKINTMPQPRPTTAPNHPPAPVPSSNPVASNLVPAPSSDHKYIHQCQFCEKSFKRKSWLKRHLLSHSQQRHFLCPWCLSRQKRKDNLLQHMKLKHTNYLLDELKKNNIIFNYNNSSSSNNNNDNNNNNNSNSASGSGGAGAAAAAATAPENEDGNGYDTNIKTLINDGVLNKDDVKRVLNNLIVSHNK
# Assay Explanation: PBM E-score (8-mer binding enrichment) (E-score (-0.5 to 0.5)); higher = stronger / more preferred TF binding
# Applied Conditions: protein concentration: 200 nM; construct: GST-full length
Whole data set: some 33,000 sequences, median “E-score (-0.5 to 0.5)” near -0.035, cut for the highest 2% near 0.34. Many of the other results were omitted from the sample, so the highest values are more common in it than they were.
Output spec: single numeric token, no unit.

In the examples that follow, each entry is paired with its recorded PBM E-score.
> print(dat)
   biopolymer.sequence  value.measured
1             GCTTACAA           0.197
2             ACTGCCTA           0.199

Look up PBM E-score for this sequence: ACAAGTGC
0.201

----------
# Measurement Target: Mot3 (UniProt P54785)
# Sequence: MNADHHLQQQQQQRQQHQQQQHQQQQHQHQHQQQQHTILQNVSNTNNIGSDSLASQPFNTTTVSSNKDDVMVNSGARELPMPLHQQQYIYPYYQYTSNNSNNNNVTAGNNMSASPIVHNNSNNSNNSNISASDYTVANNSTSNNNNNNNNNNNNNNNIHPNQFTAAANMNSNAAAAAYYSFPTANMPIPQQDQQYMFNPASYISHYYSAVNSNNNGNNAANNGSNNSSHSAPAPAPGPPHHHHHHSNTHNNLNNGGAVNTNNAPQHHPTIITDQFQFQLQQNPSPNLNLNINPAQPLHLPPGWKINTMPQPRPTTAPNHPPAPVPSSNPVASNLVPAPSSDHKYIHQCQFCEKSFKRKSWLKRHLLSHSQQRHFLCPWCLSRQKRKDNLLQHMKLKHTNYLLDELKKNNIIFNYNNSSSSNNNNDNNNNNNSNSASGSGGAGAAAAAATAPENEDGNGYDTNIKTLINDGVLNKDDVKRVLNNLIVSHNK
# Assay Explanation: PBM E-score (8-mer binding enrichment) (E-score (-0.5 to 0.5)); higher = stronger / more preferred TF binding
# Applied Conditions: protein concentration: 200 nM; construct: GST-full length
The full ranking holds about 33,000 sequences; the median of “E-score (-0.5 to 0.5)” is about -0.035, and the highest 2% start at about 0.34. The full list was thinned out, with the highest values kept by preference.
Entries are grouped by PBM E-score into these classes: bin A (below -0.05), bin B (-0.05 to below 0.2), bin C (0.2 or more)

Illustrative cases are given below, each with its answer.
> print(dat)
   biopolymer.sequence     measurement.target  assigned.label
1             ACAGAACT  Mot3 (UniProt P54785)           bin B
2             GATTGAAC  Mot3 (UniProt P54785)           bin B
3             ATACAGGC  Mot3 (UniProt P54785)           bin C
4             GAAAAGCC  Mot3 (UniProt P54785)           bin A
5             AGTCTATA  Mot3 (UniProt P54785)           bin A
6             CTTCGGTC  Mot3 (UniProt P54785)           bin A
7             CCAAAGTC  Mot3 (UniProt P54785)           bin A
8             ACTTGTTC  Mot3 (UniProt P54785)           bin B

Kindly state the category for this sequence: ATGTAAAT
bin C

Repeat with GACCAATC
bin B

Repeat with CCTGTCGA
bin C

Repeat with TCTACCCA
bin A

Repeat with ACCGAGAC
bin B

Repeat with ACTGTGTC
bin B

Repeat with CCTGTCGC
bin B

Repeat with GTACAGGA
bin C

# credit: the supplement of paper PMC3334620
